- System Under Test: CaSho1
- Measurement Description: SPOT peptide array binding signal intensity (averaged, normalized) (arbitrary units (background-subtracted, floor 0; scale differs between SH3 domains)); higher = stronger binding of the SH3 domain to the peptide
Endpoint Name: SPOT peptide array binding signal intensity
Would you mind answering with just the numeric figure?

Solved entries (count: 4):
Binder: MARRRLPDRPPNGIG
Observed Value: 794
--
Binder: DLPLPDLPPEPPTEL
Observed Value: 9.5
--
Binder: HGKRRAPLLLAKLDV
Observed Value: 95
--
Binder: VTHRLRISIPGITGR
Observed Value: 1000

Recorded SPOT peptide array binding signal intensity (binder "RKNRAPPQRPRFNRE" ): 117
